Assay: NCI Yeast Anticancer Drug Screen. Data for the sgs1 mgt1 strain (AID 161);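 note: 0% = growth of cultures given vehicle only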
Conditions: S. cerevisiae sgs1 mgt1 strain, at 50.0 µM, stronger effect = higher value
About 79,000 compounds went through this panel and 15% of them were active in at least one assay; those are over-represented in the sample as a whole.
What growth inhibition was measured for each of the following?
Number only, in %; omit the unit.

# lookup: growth inhibition of COC(=O)OCC1OC(OC(C)=O)C2OC(=O)OC12 (stereo unspecified) -16.7

// next record CNC(=O)n1cnc(N)n1 (tested in a mixture with another compound) 16.7

// next record COc1cc(NCCN2CCOCC2)c([N+](=O)[O-])cc1OC 8.25

// next record CC(C)(c1cccs1)c1cscc1C(=O)O -13.3

// next record Cc1cc(C)nc(NC(=O)COc2ccc(Cl)cc2)c1 -20.8

// next record CN(C)C=NC1CC(C)(C)NC(C)(C)C1 3.1

// next record CCOC(=O)C1=C(C(C)=O)C(c2ccc(OC)c(OC)c2)C(C(C)=O)=C(C(=O)OCC)N1 8.9

// next record N#CC1=C(N)NC(=O)C(C(N)=O)C1c1ccccc1Cl (stereo unspecified) -12.1

// next record CC(=O)NC1=C/C(=C/COC(C)=O)OC1=O 11.8

// next record O=[N+]([O-])c1ccccc1OC1OC(CO)C(O)C(O)C1O (stereo unspecified) 14.2

// next record Cc1c(N2CCCC2)cc2c(c1-n1cccc1)C(C)(C)CC2(C)C 1.55

Source listed as PubChem BioAssay (NCI).
